Target: ATP-dependent 6-phosphofructokinase (Trypanosoma brucei brucei)
Experiment: Inhibitors of T. brucei phosphofructokinase: Hit Validation; also: nearly all actives have a fitted effect of over 60% in size
Settings: purified T. brucei PFK, ADP-Glo luminescence, 45 min; series mostly up to 57.5 µM
From the text: NCGC Assay Overview: Various species of the protozoan family Trypanosomatidae are responsible for a range of serious human diseases in tropical and subtropical areas of the world. […] Many of the disorders caused by trypanosomatids are fatal if left untreated, but most currently used drugs are inefficient and toxic. […] A luminescence-based assay for T. brucei PFK activity has been developed which uses luciferase to detect production of ADP. […]
Out of some 1,100 compounds screened, about 430 (39%) were called active. Another 44% or so got no clear call; they are omitted. Calls follow the shape of the dose curve; as a rule, active = well fitted inhibition curve with a large enough effect; inconclusive = small, poorly fitted or top-dose-only effect, or effect the other way; inactive = flat fitted curve, though single readings scatter. So high a share suggests a set chosen from earlier hits. Many of the other results were omitted from the sample, so actives are more common in it than they were.
The reply should be one of these categories: True for active, False for inactive

Reference set (5 entries):
FC(F)(F)C1CCCN(c2nsc3ccccc23)C1 (stereo unspecified): True
O=c1[nH]c2ccccc2n2c(-c3ccccc3)nnc12: True
Cc1cccc(-n2c(N)c(C(=O)N3CCN(C)CC3)sc2=S)c1: True
Cc1ccc(-c2nn(-c3ccccc3)cc2/C=C2\SC(=S)N(CCCCCC(=O)O)C2=O)o1: True
Cc1ccccc1CN1C[C@@H]2C[C@@H](c3cn(C)nc3-c3ccccc3)N3CCC[C@@]23C1=O: False

We now examine a further compound.
Status in this test for `Cn1sc(=O)c2cc(S(=O)(=O)NC3CC3)ccc21` ?
True

====

This listing pairs compounds with measured Potency.
Molecular target: ATP-dependent 6-phosphofructokinase (Trypanosoma brucei brucei)
Assay: Inhibitors of T. brucei phosphofructokinase: Hit Validation; also: nearly all actives have a fitted effect of over 60% in size; also: potency is read from the fitted curve at half-maximal effect
Conditions: purified T. brucei PFK, ADP-Glo luminescence, 45 min; series mostly up to 57.5 µM
The campaign covered roughly 1,100 compounds. About 430 (39%) were called active. Inconclusive results (about 44%) are left out. So high a share suggests a set chosen from earlier hits. Shown is part of a subset that was picked to be rich in actives.

Example entries and their recorded answers appear below.
O=C(NCc1ccc(Cl)c(Cl)c1)c1cccnc1: 26.9 µM (active)
O=C(CSc1nc(O)c(Cc2ccccc2)c(=O)[nH]1)Nc1nc2c(s1)CCCC2: 16.9 µM (active)
Cc1nc(N)nc(SCc2ccc([N+](=O)[O-])cc2)c1N: 19 µM (active)
OCCN1CCN(C(=S)c2ccc(-c3ccccc3)cc2)CC1: 26.9 µM (active)
N#Cc1cccc(CSc2ncnc(N)n2)c1: 26.9 µM (active)

Provide measured Potency on ATP-dependent 6-phosphofructokinase (Trypanosoma brucei brucei) for `O=[N+]([O-])c1c(NCCO)cc(Sc2nc3ccccc3s2)c2nonc12` please.
1.51 µM (active)

Provide measured Potency on ATP-dependent 6-phosphofructokinase (Trypanosoma brucei brucei) for `COC(=O)CC(=O)N1CCN(c2ccc(Cl)c(Cl)c2)CC1` please.
26.9 µM (active)

====

Molecular target: ATP-dependent 6-phosphofructokinase (Trypanosoma brucei brucei) (UniProt O15648)
Sequence (O15648 whole entry, looked up): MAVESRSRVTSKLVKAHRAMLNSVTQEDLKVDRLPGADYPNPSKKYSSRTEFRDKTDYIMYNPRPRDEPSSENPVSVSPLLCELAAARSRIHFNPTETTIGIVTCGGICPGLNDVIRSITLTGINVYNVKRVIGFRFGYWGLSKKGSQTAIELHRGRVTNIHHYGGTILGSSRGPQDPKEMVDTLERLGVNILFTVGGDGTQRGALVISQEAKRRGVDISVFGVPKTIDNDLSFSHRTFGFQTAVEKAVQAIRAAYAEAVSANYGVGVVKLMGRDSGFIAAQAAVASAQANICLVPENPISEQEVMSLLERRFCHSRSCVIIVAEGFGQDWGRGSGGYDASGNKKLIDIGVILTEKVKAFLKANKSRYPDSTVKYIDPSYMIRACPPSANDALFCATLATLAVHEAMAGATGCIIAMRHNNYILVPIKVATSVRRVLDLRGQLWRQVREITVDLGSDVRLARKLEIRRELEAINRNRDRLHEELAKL
Test: Inhibitors of T. brucei phosphofructokinase: Hit Validation; also: nearly all actives have a fitted effect of over 60% in size
Settings: purified T. brucei PFK, ADP-Glo luminescence, 45 min; series mostly up to 57.5 µM
Text: NCGC Assay Overview: Various species of the protozoan family Trypanosomatidae are responsible for a range of serious human diseases in tropical and subtropical areas of the world. […] Many of the disorders caused by trypanosomatids are fatal if left untreated, but most currently used drugs are inefficient and toxic. […] A luminescence-based assay for T. brucei PFK activity has been developed which uses luciferase to detect production of ADP. […]
Among all 1,100 compounds or so, about 430 (39%) were called active. Roughly 44% stayed inconclusive and do not appear here. Calls come from the whole dose curve; as a rule, active = well fitted inhibition curve with a large enough effect; inconclusive = small, poorly fitted or top-dose-only effect, or effect the other way; inactive = flat fitted curve, though single readings scatter. So high a share suggests a set chosen from earlier hits. This excerpt belongs to a sample that is enriched for actives.
The reply should be one of these categories: active, inactive

Reference set (3 entries):
O=C1CSC(=S)N1/N=C/c1ccc(O)c([N+](=O)[O-])c1: inactive
O=C(Cc1ccc(Cl)c(Cl)c1)Nc1ccc(SC(F)F)cc1: active
Cc1ccc(CC(=O)Nc2ccc(S(=O)(=O)N3CCOCC3)cc2)cc1C: inactive

Status in this test for COc1ccc(N/C=C(\C2OC(=O)c3ccccc32)[N+](=O)[O-])cc1 (stereo not given) ?
inactive

Status in this test for `Cc1nn(Cc2ccc(Cl)c(Cl)c2)c(C)c1NC(=O)c1cc(C2CC2)on1` ?
active
